# target: Endothelin-1 receptor (Rattus norvegicus)
# Sequence (P26684 whole entry): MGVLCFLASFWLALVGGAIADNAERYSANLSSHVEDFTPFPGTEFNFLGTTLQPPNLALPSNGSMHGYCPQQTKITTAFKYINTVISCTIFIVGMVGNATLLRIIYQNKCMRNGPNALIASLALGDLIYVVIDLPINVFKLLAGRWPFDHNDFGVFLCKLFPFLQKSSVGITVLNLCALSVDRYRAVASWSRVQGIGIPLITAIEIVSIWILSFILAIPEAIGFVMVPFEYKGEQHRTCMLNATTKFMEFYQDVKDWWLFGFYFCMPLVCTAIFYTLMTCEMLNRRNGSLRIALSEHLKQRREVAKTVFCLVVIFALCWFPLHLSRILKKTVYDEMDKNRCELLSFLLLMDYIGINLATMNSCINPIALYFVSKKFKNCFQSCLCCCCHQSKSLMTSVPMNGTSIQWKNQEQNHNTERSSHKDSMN
# assayInfo: In vitro inhibition of endothelin binding to endothelin A receptor in rat heart ventricles was measured using a 125-I labelled ET-1 competition assay
parameter: IC50

Exam item: // fetch IC50 for `COc1cccc(Cn2[nH]c(-c3ccccc3)c(Cc3ccc4c(c3)OCO4)c2=O)c1` ; system: Endothelin-1 receptor (Rattus norvegicus)
Marked response: 420 nM

Exam item: // fetch IC50 for `O=c1c(Cc2ccc3c(c2)OCO3)c(C(F)(F)F)[nH]n1Cc1ccccc1` ; system: Endothelin-1 receptor (Rattus norvegicus)
Marked response: 10000 nM

Exam item: // fetch IC50 for `COc1cccc(Cn2[nH]c(C(F)(F)F)c(Cc3ccc(Cl)cc3)c2=O)c1` ; system: Endothelin-1 receptor (Rattus norvegicus)
Marked response: 4300 nM

Exam item: // fetch IC50 for `COc1ccc(Cc2[nH]n(Cc3cccc(OC)c3)c(=O)c2Cc2ccc3c(c2)OCO3)cc1` ; system: Endothelin-1 receptor (Rattus norvegicus)
Marked response: 7500 nM

Exam item: // fetch IC50 for `O=c1c(Cc2ccc3c(c2)OCO3)c(C(F)(F)F)[nH]n1Cc1cccc(Cl)c1` ; system: Endothelin-1 receptor (Rattus norvegicus)
Marked response: 1900 nM

Exam item: // fetch IC50 for `COc1cccc(Cn2nc(-c3ccccc3)c(Cc3cc4c(cc3Cl)OCO4)c2C(=O)O)c1` ; system: Endothelin-1 receptor (Rattus norvegicus)
Marked response: 18 nM

Exam item: // fetch IC50 for `COc1cccc(Cn2nc(C(F)(F)F)c(Cc3ccc4c(c3)OCO4)c2OCC(=O)O)c1` ; system: Endothelin-1 receptor (Rattus norvegicus)
Marked response: 450 nM

Exam item: // fetch IC50 for `COc1ccccc1Cn1[nH]c(C(F)(F)F)c(Cc2ccc3c(c2)OCO3)c1=O` ; system: Endothelin-1 receptor (Rattus norvegicus)
Marked response: 1800 nM

Exam item: // fetch IC50 for `COc1cccc(Cn2nc(C(F)(F)F)c(Cc3ccc4c(c3)OCO4)c2OCCO)c1` ; system: Endothelin-1 receptor (Rattus norvegicus)
Marked response: 40000 nM
